B1: ESRRA (parent)
chain: LGVAQRSLPLQDELAFAEDLVLDE

Variants of: B1
Measurement Protocol: protein stability index of a GFP-peptide fusion (GPS, HEK-293T) (PSI 1-6); higher = more stable;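 further: lentivirally expressed fusions sorted by FACS into six bins by GFP to DsRed ratio, PSI derived from sequencing read proportions per bin multiplied by bin number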
Condition Set: c terminus: a fixed tail appended
Items are presented alongside their recorded protein stability index.
Quantity Name: protein stability index

- A15C: 3.93
- L22P: 5.34
- L10C: 5.41
- D19Y: 2.03
- A4P: 3.1
- Q11V: 3.14
- F16G: 4.64
- S7N: 2.46
- D19L: 2.16
- E13Y: 3.5
- L20N: 4.85
- F16K: 3.43
- P9M: 3.53
- P9W: 3.21
- Q11M: 3.65
- D12E: 2.3
- L8N: 2.91
- L20Q: 4.21
- L14V: 4.92
- V21F: 4.63
- G2E: 3.17
- A4M: 2.58
- L8D: 4.91
- D12A: 3.13
- L14T: 5.5
- Q5D: 2.77
- L14Y: 4.81
- V21M: 4.49
- E18Q: 4.34
- G2F: 1.87
- E18L: 2.89
- V3P: 2.73
- L14F: 5.55
- L8F: 2.33
- A15M: 3.49
- F16V: 4.09
- L1E: 4.04
- F16L: 2.96
- V21S: 4.43
- E24F: 2.42
- L20F: 4.98
- Q5M: 2.91
- L22W: 3.85
- R6Y: 2.16
- V3W: 2.82
- L1F: 2.81
